IC50 overview
- measurement.target: FGFR2 (Homo sapiens, UniProt P21802)
- Sequence (P21802 399-821 limits assumed): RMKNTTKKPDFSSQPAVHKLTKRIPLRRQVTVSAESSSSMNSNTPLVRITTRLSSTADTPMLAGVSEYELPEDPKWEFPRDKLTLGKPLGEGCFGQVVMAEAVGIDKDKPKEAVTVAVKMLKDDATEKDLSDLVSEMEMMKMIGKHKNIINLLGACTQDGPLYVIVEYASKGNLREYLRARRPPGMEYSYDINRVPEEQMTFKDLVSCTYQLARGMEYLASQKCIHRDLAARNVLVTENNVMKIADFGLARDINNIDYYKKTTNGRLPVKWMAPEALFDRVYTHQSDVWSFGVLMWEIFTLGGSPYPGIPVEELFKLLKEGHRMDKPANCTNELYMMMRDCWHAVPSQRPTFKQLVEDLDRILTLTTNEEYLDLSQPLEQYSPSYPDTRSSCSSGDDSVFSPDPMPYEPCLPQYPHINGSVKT
- assay.protocol: FGFR wild type enzyme assay (HTRF KinEASE-TK), FGFR2
- assay.setup: Enz FGFR2 (nM), FGFR2 wild type enzyme assay
Please reply with the bare figure in nM and do not write the unit itself.

These recorded examples may help you get a feel for the data.
CC(=O)N1CCC[C@H](n2cc(-c3cc(Sc4ccc(F)cc4C#N)c4c(C#N)cnn4c3)c(C)n2)C1 | 6
CC1(C)C[C@@H](n2cc(-c3cc(Sc4ccccc4C#N)c4c(C#N)cnn4c3)cn2)CCN1 | 0.3
N#Cc1ccccc1Sc1cc(-c2cnn([C@@H]3CCCNC3)c2)cn2ncc(C#N)c12 | 0.4

Now look at this one.
Inquiry: Give the measured IC50 for Cc1c(-c2cc(Sc3ccc(F)cc3C#N)c3c(C#N)cnn3c2)cnn1[C@@H]1C[C@H]2CC[C@@H](C1)N2
Reply text: 0.6

* * *

IC50 overview
- measurement.target: FGFR2 (Homo sapiens, UniProt P21802)
- assay.protocol: FGFR wild type enzyme assay (HTRF KinEASE-TK), FGFR2
- assay.setup: Enz FGFR2 (nM), FGFR2 wild type enzyme assay
Be sure to follow the number with its unit.

These recorded examples may help you get a feel for the data.
Cc1c(-c2cc(Sc3ccc(F)cc3C#N)c3c(C#N)cnn3c2)cnn1[C@H]1CCCN(C(=O)[C@@H](C)O)C1 | 1 nM
CC1(C)C[C@H](n2cc(-c3cc(Sc4ncccc4F)c4c(C#N)cnn4c3)cn2)CN1 | 1 nM
CC(=O)N1CC[C@H](n2ncc(-c3cc(Sc4ccc(F)cc4C#N)c4c(C#N)cnn4c3)c2C)C[C@@H]1C | 2 nM
Cc1c(-c2cc(Sc3ccccc3C#N)c3c(C#N)cnn3c2)cnn1[C@@H]1CCNC(=O)C1 | 3 nM
Cc1c(-c2cc(Sc3ccc(F)cc3C#N)c3c(C#N)cnn3c2)cnn1[C@H]1CC[C@H](OC(=O)[C@@H](N)C(C)C)CC1 | 1 nM
COc1cc(Sc2cc(-c3cnn(C4CCN(C)CC4)c3C)cn3ncc(C#N)c23)c(C#N)cc1F | 5 nM

Inquiry: Give the measured IC50 for CN1CC[C@H](n2cc(-c3cc(Sc4ccccc4C#N)c4c(C#N)cnn4c3)cn2)CC1=O
Reply text: 2 nM

* * *

- measurement.target: FGFR2 (Homo sapiens, UniProt P21802)
- assay.protocol: FGFR wild type enzyme assay (HTRF KinEASE-TK), FGFR2
- assay.setup: Enz FGFR2 (nM), FGFR2 wild type enzyme
recorded.endpoint: IC50 (nM)
Please reply with the bare figure in nM and do not write the unit itself.

These recorded examples may help you get a feel for the data.
Cc1c(-c2cc(Sc3ncccc3F)c3c(C#N)cnn3c2)cnn1C[C@H](C)N(C)C | 8
CN[C@]1(C)CC[C@@H](n2ncc(-c3cc(Sc4ccccc4C#N)c4c(C#N)cnn4c3)c2C)CC1 | 0.3
Cc1c(-c2cc(Sc3ncccc3F)c3c(C#N)cnn3c2)cnn1C1CC2(CNC2)C1 | 1

Now look at this one.
Inquiry: Give the measured IC50 for Cc1c(-c2cc(Sc3ccccc3C#N)c3c(C#N)cnn3c2)cnn1[C@@H]1C[C@H]2CC[C@@H](C1)N2C
Reply text: 0.4

* * *

- measurement.target: UniProt:P21802
- assay.protocol: FGFR wild type enzyme assay (HTRF KinEASE-TK), FGFR2
- assay.setup: Enz FGFR2 (nM), FGFR2 wild type enzyme
The label is TRUE for IC50 below 8 nM and FALSE for IC50 equal to or exceeding 8 nM.

Inquiry: # TODO verify IC50 < 8 nM strictly for this molecule: Cc1c(-c2cc(Sc3ccccc3C#N)c3c(C#N)cnn3c2)cnn1C1CCN(Cc2ccccn2)CC1 [Example 267]
Reply text: TRUE

Inquiry: # TODO verify IC50 < 8 nM strictly for this molecule: Cc1c(-c2cc(Sc3ncccc3F)c3c(C#N)cnn3c2)cnn1[C@@H](C)[C@H](O)CO [Example 198]
Reply text: FALSE

Inquiry: # TODO verify IC50 < 8 nM strictly for this molecule: Cc1c(-c2cc(Sc3ncccc3F)c3c(C#N)cnn3c2)cnn1[C@@H]1CCNC[C@H]1O [Example 277]
Reply text: FALSE

* * *

log10(IC50) overview
- measurement.target: FGFR2 (Homo sapiens)
- assay.protocol: FGFR wild type enzyme assay (HTRF KinEASE-TK), FGFR2
- assay.setup: Enz FGFR2 (nM), FGFR2 wild type enzyme
Friendly reminder: values = log10 of IC50, unit nM.

These recorded examples may help you get a feel for the data.
Cc1c(-c2cc(Sc3ncccc3F)c3c(C#N)cnn3c2)cnn1[C@H]1CC[C@@H](NCC2(C)CC2)CC1 [Example 253] | -0.22
Cc1c(-c2cc(Sc3ncccc3F)c3c(C#N)cnn3c2)cnn1C1CCN([C@H](C)CO)CC1 [Example 147] | 0.30
Cc1c(-c2cc(Sc3ncccc3F)c3c(C#N)cnn3c2)cnn1C1CCC(N(C)C)CC1 (stereo not shown) [Example 171] | 0.00
CC(=O)N1CC[C@]2(CC[C@@H](n3ncc(-c4cc(Sc5ccccc5C#N)c5c(C#N)cnn5c4)c3C)CC2)C1 [Example 321] | 0.00
Cc1c(-c2cc(Sc3ncccc3F)c3c(C#N)cnn3c2)cnn1C1CCN(C(=O)CO)CC1 [Example 163] | 0.48

Inquiry: Give the measured log10(IC50) for Cc1c(-c2cc(Sc3ncccc3F)c3c(C#N)cnn3c2)cnn1C1CCN(Cc2ncccn2)CC1 [Example 216]
Reply text: 0.30

Inquiry: Give the measured log10(IC50) for CC(=O)N1CCO[C@@H](Cn2ncc(-c3cc(Sc4ncccc4F)c4c(C#N)cnn4c3)c2C)C1 [Example 280]
Reply text: 1.08

* * *

IC50 overview
- measurement.target: FGFR2 (Homo sapiens, UniProt P21802)
- assay.protocol: FGFR wild type enzyme assay (HTRF KinEASE-TK), FGFR2
- assay.setup: Enz FGFR2 (nM), FGFR2 wild type enzyme
Please reply with the bare figure in nM and do not write the unit itself.

Cc1c(-c2cc(Sc3ccccc3C#N)c3c(C#N)cnn3c2)cnn1[C@H]1CC[C@@H](NCc2ccccn2)CC1 | 0.4

Inquiry: With FGFR2 (Homo sapiens, UniProt P21802) as the test system, provide measured IC50 for this molecule: Cc1c(F)ccc(Sc2cc(-c3cnn(C4CCNCC4)c3C)cn3ncc(C#N)c23)c1C#N
Reply text: 1

Inquiry: With FGFR2 (Homo sapiens, UniProt P21802) as the test system, provide measured IC50 for this molecule: Cc1c(-c2cc(Sc3ncccc3F)c3c(C#N)cnn3c2)cnn1C1CCNC(C)C1 (stereo not shown)
Reply text: 1

Inquiry: With FGFR2 (Homo sapiens, UniProt P21802) as the test system, provide measured IC50 for this molecule: Cc1c(-c2cc(Sc3ncccc3F)c3c(C#N)cnn3c2)cnn1C[C@H]1CC[C@@H](O)CC1
Reply text: 3

* * *

- measurement.target: FGFR2 (Homo sapiens)
- assay.protocol: FGFR wild type enzyme assay (HTRF KinEASE-TK), FGFR2
- assay.setup: Enz FGFR2 (nM)
Where a name gives a salt, the structure may show the parent alone.
recorded.endpoint: IC50 (nM)
Please reply with the bare figure in nM and do not write the unit itself.

These recorded examples may help you get a feel for the data.
N#Cc1cnn2cc(-c3cnn([C@H]4CCN(CCO)C4)c3)cc(Sc3ccccn3)c12 [Example 97] | 4
Cc1c(-c2cc(Sc3ccc(Cl)cc3C#N)c3c(C#N)cnn3c2)cnn1C1CCNCC1 [Example 123] | 9

Now look at this one.
Inquiry: Give the measured IC50 for N#Cc1cnn2cc(-c3cnn(C4CCNCC4)c3)cc(Sc3ncccn3)c12 [Example 60, HCl]
Reply text: 7

* * *

- measurement.target: UniProt P21802
- assay.protocol: FGFR wild type enzyme assay (HTRF KinEASE-TK), FGFR2
- assay.setup: Enz FGFR2 (nM)
Where a name gives a salt, the structure may show the parent alone.
The label is true for IC50 below 7 nM and false for IC50 equal to or exceeding 7 nM.

A selection of reference data follows.
COCCN1CCC(n2ncc(-c3cc(Sc4ncccc4F)c4c(C#N)cnn4c3)c2C)CC1 [Example 109] | true
Cc1c(-c2cc(Sc3ccccn3)c3c(C#N)cnn3c2)cnn1[C@H]1CCCNC1 [Example 56] | true
N#Cc1cnn2cc(-c3cnn([C@H]4CCNC4)c3)cc(Sc3ccccn3)c12 [Example 73, HCl] | true
Cc1ccncc1Sc1cc(-c2cnn([C@H]3CCCNC3)c2)cn2ncc(C#N)c12 [Example 80] | false

Inquiry: # TODO verify IC50 < 7 nM strictly for this molecule: N#Cc1cnn2cc(-c3cnn([C@H]4CCCNC4)c3)cc(Sc3cccnn3)c12 [Example 82]
Reply text: false

Inquiry: # TODO verify IC50 < 7 nM strictly for this molecule: N#Cc1cccc(Sc2cc(-c3cnn([C@H]4CCCNC4)c3)cn3ncc(C#N)c23)n1 [Example 77]
Reply text: false

Inquiry: # TODO verify IC50 < 7 nM strictly for this molecule: CN1CCC[C@@H]1C(=O)N1CCC(n2cc(-c3cc(Sc4ncccc4F)c4c(C#N)cnn4c3)cn2)CC1 [Example 127]
Reply text: true

Inquiry: # TODO verify IC50 < 7 nM strictly for this molecule: N#Cc1cnn2cc(-c3cnn([C@H]4CCCNC4)c3)cc(Sc3ccncn3)c12 [Example 76]
Reply text: false

Inquiry: # TODO verify IC50 < 7 nM strictly for this molecule: Cc1c(-c2cc(Sc3ccccc3C#N)c3c(C#N)cnn3c2)cnn1C1CCNCC1 [Example 104]
Reply text: true

Inquiry: # TODO verify IC50 < 7 nM strictly for this molecule: Cc1c(-c2cc(Sc3ncc(F)cc3F)c3c(C#N)cnn3c2)cnn1C1CCNCC1 [Example 110]
Reply text: true

Inquiry: # TODO verify IC50 < 7 nM strictly for this molecule: CN1CCC[C@H]1C(=O)N1CCC(n2cc(-c3cc(Sc4ncccc4F)c4c(C#N)cnn4c3)cn2)CC1 [Example 126]
Reply text: true

Inquiry: # TODO verify IC50 < 7 nM strictly for this molecule: Cc1cc(Sc2cc(-c3cnn(C4CCNCC4)c3C)cn3ncc(C#N)c23)c(F)cn1 [Example 116]
Reply text: false

Inquiry: # TODO verify IC50 < 7 nM strictly for this molecule: CC(=O)N1CCC(n2cc(-c3cc(Sc4ccccn4)c4c(C#N)cnn4c3)cn2)CC1 [Example 93]
Reply text: true

Inquiry: # TODO verify IC50 < 7 nM strictly for this molecule: Cc1ccnc(Sc2cc(-c3cnn([C@H]4CCCNC4)c3)cn3ncc(C#N)c23)c1 [Example 59]
Reply text: false

Inquiry: # TODO verify IC50 < 7 nM strictly for this molecule: COCCSc1cc(-c2cnn([C@H]3CCCNC3)c2)cn2ncc(C#N)c12 [Example 53]
Reply text: true

FYI, the data here is from patent US20240270741A1.
